- TARGET SYSTEM: Amblyomma americanum EcR (AmaEcR-DEF) (Amblyomma americanum)
- Sequence (O44338 291-570): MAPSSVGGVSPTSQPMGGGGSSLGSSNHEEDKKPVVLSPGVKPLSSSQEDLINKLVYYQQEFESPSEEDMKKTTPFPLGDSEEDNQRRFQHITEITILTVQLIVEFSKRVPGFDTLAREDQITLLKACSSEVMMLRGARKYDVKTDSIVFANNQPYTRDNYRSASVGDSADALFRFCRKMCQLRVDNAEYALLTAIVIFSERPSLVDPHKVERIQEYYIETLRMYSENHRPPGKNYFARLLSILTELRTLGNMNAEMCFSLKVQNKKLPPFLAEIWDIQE
- Sequence (P28702 299-449 partner): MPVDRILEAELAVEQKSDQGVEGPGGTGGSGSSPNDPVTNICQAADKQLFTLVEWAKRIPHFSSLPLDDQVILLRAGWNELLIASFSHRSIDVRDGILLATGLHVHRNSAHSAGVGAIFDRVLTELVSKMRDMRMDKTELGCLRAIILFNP
- PROTOCOL DESCRIPTION: Two-hybrid gene switch assay, AmaEcR-DEF in NIH3T3 cells
- CONDITION INFO: NIH3T3, 48 h, read-out: rel max FI (20E), AMA
RECORDED ENDPOINT: Emax (%)
Please state the figure in %; there is no need to write the unit.

Emax for CO[C@@H]1C[C@H]2C(=O)C=C3[C@H](CC[C@]4(C)[C@@H]([C@@](C)(O)[C@@H](CCC(C)(C)O)OC)CC[C@@]34O)[C@@]2(C)C[C@@H]1O [20E-3,22-dimethyl ether] is 104

Emax for CO[C@H]1C[C@@]2(C)[C@@H](C[C@H]1O)C(=O)C=C1[C@@H]2CC[C@]2(C)[C@@H]([C@@](C)(O)[C@H](O)CCC(C)(C)O)CC[C@@]12O [20E-2-methyl ether] is 65

---

- TARGET SYSTEM: wild-type Choristoneura fumiferana EcR (CfEcR-DEF) (Choristoneura fumiferana, UniProt O77255)
- Sequence (O77255 219-541): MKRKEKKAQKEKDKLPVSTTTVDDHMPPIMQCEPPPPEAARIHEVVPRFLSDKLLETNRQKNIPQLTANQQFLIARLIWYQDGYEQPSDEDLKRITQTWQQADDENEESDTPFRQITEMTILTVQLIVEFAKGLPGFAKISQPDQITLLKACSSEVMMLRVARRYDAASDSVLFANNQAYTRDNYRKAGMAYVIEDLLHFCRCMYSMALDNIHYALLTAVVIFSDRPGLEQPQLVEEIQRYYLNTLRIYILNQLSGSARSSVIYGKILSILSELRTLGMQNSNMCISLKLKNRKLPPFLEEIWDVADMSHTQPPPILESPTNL
- Sequence (P28702 299-449 partner): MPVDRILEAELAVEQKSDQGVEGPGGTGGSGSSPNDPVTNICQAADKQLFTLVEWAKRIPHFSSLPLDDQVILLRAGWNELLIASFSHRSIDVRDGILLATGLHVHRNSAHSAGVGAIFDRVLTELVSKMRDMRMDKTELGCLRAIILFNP
- PROTOCOL DESCRIPTION: Two-hybrid gene switch assay, wild-type CfEcR-DEF (GAL4-EcR / VP16-RXR-USP chimera, luciferase) in NIH3T3 cells
- CONDITION INFO: wt-CfEcR gene switch, NIH3T3, Example One
RECORDED ENDPOINT: pEC50
Entry type: numeric. Quantity: pEC50, the -log10 of concentration in molar units.

pEC50 for CC(C)CC[C@@H](O)[C@](C)(O)[C@H]1CC[C@@]2(O)C3=CC(=O)[C@]4(O)C[C@@H](O)[C@@H](O)C[C@]4(C)[C@H]3[C@H](O)C[C@]12C [muristerone A] is 5.13
